TEST SUMMARY: Concentration in mouse serum after oral administration
Format: in vivo, male ICR mice
ASSAY CONTEXT: mouse, serum, 0.50 hr, dose not given
Measured concentration at 0.5 h values are reported for all entries that follow.
Write the number in ng/mL without appending the unit.

Solved cases (2 shown):
COMPOUND	concentration at 0.5 h / ng/mL
CC[C@H]1OC(=O)[C@H](C)C(=O)[C@H](C)[C@@H](O[C@@H]2O[C@H](C)C[C@H](N(C)C)[C@H]2O)[C@](C)(OC)C[C@@H](C)C(=O)[C@H](C)[C@H]2NC(=O)O[C@@]21C [Compound 1]	1170
CC[C@H]1OC(=O)[C@H](C)C(=O)[C@H](C)[C@@H](O[C@@H]2O[C@H](C)C[C@H](N(C)C)[C@H]2O)[C@](C)(OC)C[C@@H](C)C(=O)[C@H](C)[C@H]2OC(=O)O[C@@]21C [Comparative drug 2]	410

Query :: Reported concentration at 0.5 h for CC[C@H]1OC(=O)[C@H](C)[C@@H](O[C@H]2C[C@@](C)(OC)[C@@H](O)[C@H](C)O2)[C@H](C)[C@@H](O[C@@H]2O[C@H](C)C[C@H](N(C)C)[C@H]2O)[C@](C)(OC)C[C@@H](C)C(=O)[C@H](C)[C@@H](O)[C@]1(C)O [Comparative drug 3, 6-O-methylerythromycin A] : what is it?
Result :: 330
